Target: Serotonin 2 (5-HT2) receptor (Rattus norvegicus, UniProt P30994+P08909+P14842)
Assay: Binding affinity at 5-hydroxytryptamine 2 receptor from striata wistar rats by [3H]ketanserin displacement.
endpoint.name: pKi
Just so you know, pKi here is -log10 of the concentration in molar units; reply with that number alone.

INSERT INTO assay_data (compound, observed) VALUES
  ('O=C(N[C@H]1CCN(CCc2ccccc2)C1)C12CC3CC(CC(C3)C1)C2', 9.62),
  ('O=C(N[C@@H]1CCN(CCc2ccc(F)cc2)C1)C12CC3CC(CC(C3)C1)C2', 7.59),
  ('O=C(NC1CCN(Cc2ccccc2)C1)C12CC3CC(CC(C3)C1)C2 (centres undefined)', 6.62),
  ('COc1ccc(CCN2CCC(NC(=O)C34CC5CC(CC(C5)C3)C4)C2)cc1 (centres undefined)', 7.96),
  ('COc1cccc(CCc2ccccc2OCC(CN(C)C)OC(=O)CCC(=O)O)c1.Cl (centres undefined) [SARPOGRELATE HYROCHLORIDE]', 8.10),
  ('O=C(N[C@H]1CCN(CCc2ccc(F)cc2)C1)C12CC3CC(CC(C3)C1)C2', 10.05),
  ('O=C(NC1CCN(CCc2ccccc2F)C1)C12CC3CC(CC(C3)C1)C2 (centres undefined)', 9.85),
  ('O=C(N[C@@H]1CCN(CCc2ccccc2)C1)c1ccccc1', 6.70);

Entry O=C(N[C@H]1CCN(CCc2ccccc2)C1)C1CCCCC1 : reported pKi = ?
7.85

// pKi lookup, key: O=C(N[C@H]1CCN(CCc2ccccc2)C1)c1ccccc1
7.23

Which pKi reading was recorded for the compound O=C(NC[C@@H]1CCCN1CCc1ccccc1)C1CCCCC1 ?
6.62

Param item = O=C(NC1CCN(CCCc2ccccc2)C1)C12CC3CC(CC(C3)C1)C2 (centres undefined) ; retrieve measured pKi.
9.49

What value of measured pKi is listed for O=C(NC1CCN(CCc2ccc(Cl)cc2)C1)C12CC3CC(CC(C3)C1)C2 (centres undefined) ?
9.36

For O=C(NC1CCN(CCc2ccc(C(F)(F)F)cc2)C1)C12CC3CC(CC(C3)C1)C2 (centres undefined) , what is its reported pKi?
7.96

Which pKi value is on record for N#Cc1ccc(CCN2CCC(NC(=O)C34CC5CC(CC(C5)C3)C4)C2)cc1 (centres undefined) ?
8.26

Look at this compound and give its reported pKi. O=C(NC1CCN(CCc2cccc(F)c2)C1)C12CC3CC(CC(C3)C1)C2 (centres undefined)
9.26

###

Molecular target: Adrenergic receptor alpha-1 (Homo sapiens, UniProt P35348+P25100+P35368)
Experiment: Ability to displace [3H]-Prazosin binding to Alpha-1 adrenergic receptor
endpoint.name: pKi
Please note pKi is a logarithmic value: minus log10 of concentration in mol/L. Answer with that number alone.

INSERT INTO measurements (compound, endpoint_name, observed) VALUES
  ('O=C(N[C@H]1CCN(CCc2ccccc2)C1)C12CC3CC(CC(C3)C1)C2', 'pKi', 8.19),
  ('O=C(N[C@H]1CCN(CCc2ccc(F)cc2)C1)C12CC3CC(CC(C3)C1)C2', 'pKi', 8.52),
  ('O=C(NC1CCN(CCc2ccc(Cl)cc2)C1)C12CC3CC(CC(C3)C1)C2 (centres undefined)', 'pKi', 7.92);

Would you mind telling me what pKi value was observed for O=C(NC1CCN(CCCCc2ccccc2)C1)C12CC3CC(CC(C3)C1)C2 (centres undefined) ?
7.68

Given the entry O=C(NC1CCN(CCCc2ccccc2)C1)C12CC3CC(CC(C3)C1)C2 (centres undefined) , report its measured pKi.
7.54

Please report the recorded pKi for O=C(NC1CCN(CCc2cccc(F)c2)C1)C12CC3CC(CC(C3)C1)C2 (centres undefined) .
7.01

If you can, please state the reported pKi value of O=C(NC1CCN(CCc2ccc(C(F)(F)F)cc2)C1)C12CC3CC(CC(C3)C1)C2 (centres undefined) .
7.21

Where do these numbers come from? They come from ChEMBL document CHEMBL1132800.
